src = patent EP1923473B1

assay: Extraction capability from aqueous 3 mol/L nitric acid; type: physicochemical; details: 0.1 mol/L in TPH/1-octanol (50:50)%vol; aqueous [HNO3] 3 mol/L spiked with 152Eu(III) and 241Am(III)
Measured Quantity: DEu
Numbers only.

{"Compound": "CCCCCCCCN(CCCCCCCC)C(=O)COCC(=O)NCc1ccc(CNC(=O)COCC(=O)N(CCCCCCCC)CCCCCCCC)cc1", "Measured Quantity": "DEu", "Reported Result": 276}
{"Compound": "CCCCCCCCN(CCCCCCCC)C(=O)COCC(=O)N(C)C [DMDODGA, reference compound]", "Measured Quantity": "DEu", "Reported Result": 789}
{"Compound": "CCCCN(CCCC)C(=O)COCC(=O)NCCCNC(=O)c1cc(C(C)(C)C)cc2c1Oc1c(C(=O)NCCCNC(=O)COCC(=O)N(CCCC)CCCC)cc(C(C)(C)C)cc1C2(C)C", "Measured Quantity": "DEu", "Reported Result": 318}

Dear colleague, could you please provide DEu for the compounds listed below?
1. CC(C)CCN(CCC(C)C)C(=O)COCC(=O)NCc1cccc(CNC(=O)COCC(=O)N(CCC(C)C)CCC(C)C)c1
2. CCCCCCCCN(C)C(=O)COCC(=O)NCc1cccc(CNC(=O)COCC(=O)N(C)CCCCCCCC)c1
3. CCCCCCCCCCCCOc1cc(CNC(=O)COCC(=O)N(CCCC)CCCC)cc(CNC(=O)COCC(=O)N(CCCC)CCCC)c1
4. CCCCN(CCCC)C(=O)COCC(=O)N(CCCC)CCCC [TBDGA, reference compound]
5. CCCCCC(C)Oc1cc(CNC(=O)COCC(=O)N(CCCC)CCCC)cc(CNC(=O)COCC(=O)N(CCCC)CCCC)c1 (centres unmarked)

Ans.
1: 251; 2: 309; 3: 335; 4: 680; 5: 276
